Values were extracted from patent US6664271B1.

System: chicken leukocytes
TEST_PROTOCOL: cells
Format: cell-based
SETUP_CONDITIONS: chicken leukocytes, read at 72 hours
Experimental: Various compounds of Formula I were evaluated for in vitro T-lymphocyte blastogenic activity with chicken leukocytes according to the steps described in the following procedure: (a) Exsanguination step. The leukocytes were obtained from 3-6 week old Hubbard/Peterson broiler chickens. Initially, the chickens were rendered unconscious in a CO2 chamber. […] (c) Cell counting and cell viability step. The cells were counted and checked for viability using the Trypan Blue method of exclusion. […]
MEASURED_PARAMETER: MTC (Maximum Tolerable Concentration prior to causing cytotoxicity) (µg/mL)

{"columns": ["MOLECULE", "TEST_TARGET", "READOUT_NUMBER"],
 "data": [
  ["CCC(=O)OC1CCCN(C(=O)Cc2cccs2)C1 (stereo not shown) [Example 46]", "chicken leukocytes", 10],
  ["CCOC(=O)C1CCCN(C(=O)Cc2ccccc2)C1 (stereo not shown) [Example 6]", "chicken leukocytes", 1],
  ["O=C(Cc1cccs1)N1CCC[C@H](CO)C1 [Example 59]", "chicken leukocytes", 100],
  ["CCOC(=O)[C@H]1CCCN(C(=O)NC)C1 [Example 49]", "chicken leukocytes", 10],
  ["CS(=O)(=O)OC1CCCN(C(=O)Cc2cccs2)C1 (stereo not shown) [Example 44]", "chicken leukocytes", 10],
  ["N.O=C(O)[C@H]1CCCN(C(=O)Cc2cccs2)C1 [Example 42]", "chicken leukocytes", 10],
  ["CNC(=O)N1C2CCC1C(C(=O)OC)C(=O)C2 (stereo not shown) [Example 40]", "chicken leukocytes", 10]
]}
